Tested on: Schistosoma mansoni worm couples
protocol.text: S. mansoni ovipositing capacity and coupling
condition.label: 100 µM, initial test (Table 2)
readout.type: Uncoupling

[[record]]
item_smiles = "O=c1c2cc(Cl)ccc2n(Cc2ccc(C(F)(F)F)cc2)c(=O)n1Cc1ccc(F)cc1"
tgt = "Schistosoma mansoni worm couples"
readout_type = "Uncoupling"
reported_value = "Yes"

[[record]]
item_smiles = "COc1ccc(Cn2c(=O)c3cc(C)cc(Br)c3n(Cc3ccc(C(F)(F)F)cc3)c2=O)cc1"
tgt = "Schistosoma mansoni worm couples"
readout_type = "Uncoupling"
reported_value = "Yes"

[[record]]
item_smiles = "O=c1c2ccccc2n(Cc2ccc(C(F)(F)F)cc2)c(=O)n1Cc1ccc(F)cc1"
tgt = "Schistosoma mansoni worm couples"
readout_type = "Uncoupling"
reported_value = "Yes"

[[record]]
item_smiles = "COc1ccc(Cn2c(=O)c3ccc(Br)cc3n(Cc3ccc(C(F)(F)F)cc3)c2=O)cc1"
tgt = "Schistosoma mansoni worm couples"
readout_type = "Uncoupling"
reported_value = "No"

